System: Trichophyton mentagrophytes
assay-remarks: Antifungal activity against Trichophyton mentagrophytes measured after 7 days by serial dilution method
Type: functional
Could you please report measured MIC=<80 for the items listed next?
Numeric answer only, unit µg/mL assumed.

Query block: Which value of MIC=<80 has been reported for C[C@@H](c1ncncc1F)[C@](O)(Cn1cncn1)c1ccc(F)cc1F in the records?
Result block: 0.03125

Query block: Would you mind telling me what MIC=<80 value was observed for CC(=O)N1CCN(c2ccc(OCC3COC(Cn4ccnc4)(c4ccc(Cl)cc4Cl)O3)cc2)CC1 (centres undefined) ?
Result block: 0.0625

Query block: For the compound OC(Cn1cncn1)(Cn1cncn1)c1ccc(F)cc1F , what MIC=<80 is on record?
Result block: 2
